So I've got a bunch of molecules here, and I need their pKi values.
Expect pKi as a plain number equal to -log10 of the molar concentration.

Recorded pKi for NC(CC(=O)c1ccc(Cl)c(Cl)c1)C(=O)O (configuration not stated) with Kynurenine 3-monooxygenase (Rattus norvegicus), please?
7.02

Recorded pKi for COc1ccc(S(=O)(=O)Nc2nc(-c3cccc([N+](=O)[O-])c3)cs2)cc1OC with Kynurenine 3-monooxygenase (Rattus norvegicus), please?
8.32

* * *

assayed system: Kynurenine 3-monooxygenase (Rattus norvegicus, UniProt O88867)
Sequence (O88867 whole entry): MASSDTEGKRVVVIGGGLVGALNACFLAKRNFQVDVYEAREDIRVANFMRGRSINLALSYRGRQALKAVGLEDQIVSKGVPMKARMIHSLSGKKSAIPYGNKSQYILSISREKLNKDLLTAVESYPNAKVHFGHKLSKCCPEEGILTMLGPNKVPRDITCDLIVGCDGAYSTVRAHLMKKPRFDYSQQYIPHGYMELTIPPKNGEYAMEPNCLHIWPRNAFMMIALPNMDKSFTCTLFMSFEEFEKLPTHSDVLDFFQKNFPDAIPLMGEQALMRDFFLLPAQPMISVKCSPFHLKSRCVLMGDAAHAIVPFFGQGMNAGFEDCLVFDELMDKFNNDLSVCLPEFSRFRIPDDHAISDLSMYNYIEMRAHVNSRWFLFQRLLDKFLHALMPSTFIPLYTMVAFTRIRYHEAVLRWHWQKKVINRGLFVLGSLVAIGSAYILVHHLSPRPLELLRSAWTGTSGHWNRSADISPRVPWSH
Could you please classify the records by IC50 using these ranges: bottom range: < 50 nM; center range: ≥ 50 nM and < 200 nM; top range: ≥ 200 nM

Class? Entry: CC(C)c1ccc(S(=O)(=O)Nc2nc(-c3cccc([N+](=O)[O-])c3)cs2)cc1
top range

Class? Entry: Cc1ccc(S(=O)(=O)Nc2nc(-c3cccc([N+](=O)[O-])c3)cs2)cc1
bottom range

Class? Entry: O=C(O)c1[cH-]c(-c2cccc([N+](=O)[O-])c2)[o+]n1
top range

Class? Entry: Cc1ccc(S(=O)(=O)Nc2nc(-c3ccc(O)c(C)c3)cs2)cc1
center range

Class? Entry: Cc1ccc(S(=O)(=O)Nc2nc(-c3ccc(Cl)c(Cl)c3)cs2)cc1
center range

Class? Entry: Nc1ccc(S(=O)(=O)Nc2nc(-c3cc(C(F)(F)F)ccc3F)cs2)cc1
bottom range

Class? Entry: Cc1ccc(S(=O)(=O)Nc2nc(-c3ccccc3)cs2)cc1
top range

Class? Entry: O=[N+]([O-])c1cccc(-c2csc(NS(=O)(=O)c3ccc(Cl)cc3)n2)c1
center range

Class? Entry: COc1ccc(S(=O)(=O)Nc2nc(-c3cccc([N+](=O)[O-])c3)cs2)cc1OC
bottom range

Class? Entry: Nc1ccc(S(=O)(=O)Nc2nc(-c3cccc([N+](=O)[O-])c3)cs2)cc1
bottom range

Class? Entry: NC(CC(=O)c1ccc(Cl)c(Cl)c1)C(=O)O (stereo unspecified)
top range
